The origin of these recorded values is the RNAGym collection of RNA variant scans (doi:10.7554/elife.80360).

B1: HDV Ribozyme (parent)
chain: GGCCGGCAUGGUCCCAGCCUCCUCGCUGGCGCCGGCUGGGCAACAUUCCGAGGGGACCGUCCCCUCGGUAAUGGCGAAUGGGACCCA

Variants of: B1
PROTOCOL DESCRIPTION: self-cleavage, relative activity (ratio to wild type); higher = more cleavage; co-transcriptional
MEASURE: self-cleavage

INPUT: I would be grateful if you could share the reported self-cleavage for GACCGGCAUGGUCCCAGCCUCCUUGCUGGCGCCGGCUGGGCAACAUUCCGAGGGGACCGUCCCCUCGGUAAUGGCGAAUGGGACCCA [G2A C24U] .
OUTPUT: 0.101

INPUT: Also check GGCCGGCAUGGUCCUAGCCUCCUCGCUGGCGCCGGCUGGGCAACAUUCCGAGGGGACCGUCCCCUCGGUAAUGGCGAAUGGGACCCU [C15U A87U]
OUTPUT: 0.993

INPUT: Also check GGCCGGCAUGGUCUCAGCCUCCUCGCUGGCCCCGGCUGGGCAACAUUCCGAGGGGACCGUCCCCUCGGUAAUGGCGAAUGGGACCCA [C14U G31C]
OUTPUT: 0.342

INPUT: Also check GGCCGGCAUGGUCCCAGCCUCCUCGCUGGCUCCGGCUGGGCAACAUUCCGAAGGGACCGUCCCCUCGGUAAUGGCGAAUGGGACCCA [G31U G52A]
OUTPUT: 0.431

INPUT: Also check GGCCGGCAUGGUCCCAGCCUCCUCGCUGGCGCCGGCUGGGCAACAUUCCGAGGGGACCCUCCCCCCGGUAAUGGCGAAUGGGACCCA [G59C U65C]
OUTPUT: 1.01

INPUT: Also check GGCCGGCAUGGUCCUAGCCUCCUCGCUGGCGCCGGCUGGGAAACAUUCCGAGGGGACCGUCCCCUCGGUAAUGGCGAAUGGGACCCA [C15U C41A]
OUTPUT: 0.962

INPUT: Also check GGCCGGCAUGGUUCCAGCCUCCUCGCUGUCGCCGGCUGGGCAACAUUCCGAGGGGACCGUCCCCUCGGUAAUGGCGAAUGGGACCCA [C13U G29U]
OUTPUT: 0.0707

INPUT: Also check GGCCGGCAUGGUCCCAGCCUCCUCGCGGGCGCCGGCUGGGCAACAUUCCGAGGGGACCGCCCCCUCGGUAAUGGCGAAUGGGACCCA [U27G U60C]
OUTPUT: 0.804

INPUT: Also check GGCCGGCAUGGUCCCAGCCUCCUCGCUGGCGCCCGCUGGGCAACAUUCCGAGGGGACCGUCCCCUCGGUAAUGGUGAAUGGGACCCA [G34C C75U]
OUTPUT: 0.0405

INPUT: Also check GGCCGGCAUGGUCCCAGCCUCCUGGCUGGAGCCGGCUGGGCAACAUUCCGAGGGGACCGUCCCCUCGGUAAUGGCGAAUGGGACCCA [C24G C30A]
OUTPUT: 0.0898

INPUT: Also check GGCCGGCAUGGUCCCAGCCUCCUCGCUGGCGCCGGCUGGGCAACAUUCCGAGGGGACCGUCCCCUCGGUAAUGGCGAAUGGGACCAG [C86A A87G]
OUTPUT: 0.804

INPUT: Also check GUCCGGCAUGGUCCCAGCCUCCUCGCUGGCGCCGGCUGGGCAACAUUCCGAGGGGACCGUCCCCUCGGUAAUGGCGAAUGGAACCCA [G2U G82A]
OUTPUT: 0.0189

INPUT: Also check GGCCGGCAUGGUCCCAGCCUCCUCGCUGGCGCCGGCUGGGCAACAGUCCGAGGGGACCGUCCCAUCGGUAAUGGCGAAUGGGACCCA [U46G C64A]
OUTPUT: 0.0831

INPUT: Also check GGUCGGCAUGGUCCCAGCCUCCUCGCUGGCGCCGGCUGGGCAACAUUCCGAGGGGACCCUCCCCUCGGUAAUGGCGAAUGGGACCCA [C3U G59C]
OUTPUT: 0.688

INPUT: Also check GGCCGGCAUGGUCCCAGCCUCCUCGCGGGCGCCGGCUGGGCAACAUUGCGAGGGGACCGUCCCCUCGGUAAUGGCGAAUGGGACCCA [U27G C48G]
OUTPUT: 0.923

INPUT: Also check GGCCGGCACGGUCCCAGCCUCCUCGCUGGCGCCGGCCGGGCAACAUUCCGAGGGGACCGUCCCCUCGGUAAUGGCGAAUGGGACCCA [U9C U37C]
OUTPUT: 0.978

INPUT: Also check GGCCGGCAUGGUCCCAGCCUCCUCGCUGGCGCCGGCUGGGCAACAUUCCGAGGCGACCGUCCCCUCGGUAAUGGCGAAUGGGACCCU [G54C A87U]
OUTPUT: 0.901

INPUT: Also check GGCCGGCAUGGUCCCAGCCUCCUCGCCGGCGCCGGCUGGGCAACAUUCCGAGGGUACCGUCCCCUCGGUAAUGGCGAAUGGGACCCA [U27C G55U]
OUTPUT: 0.426

INPUT: Also check GGCCGGCAUGGUCCCAGCCUCCUCGCUGGCGCCUGCUGGGCAACAUUCCGAGGGGAUCGUCCCCUCGGUAAUGGCGAAUGGGACCCA [G34U C57U]
OUTPUT: 0.174

INPUT: Also check GGCCGGCAUGGUCCCAGCCUCCUCGGUGGCGCCGGCUGGGCAACAUUCCGAGGGGACCGUCCGCUCGGUAAUGGCGAAUGGGACCCA [C26G C63G]
OUTPUT: 0.653

INPUT: Also check GGCCGGCAUGGUCCCAGCCUACUCGCUGGCGCCGGCUGGGCAACAUUCCGAGGGGACCGUCCCCCCGGUAAUGGCGAAUGGGACCCA [C21A U65C]
OUTPUT: 0.0583

INPUT: Also check GGCCGGCAUGGUCCCAGGCUCCUGGCUGGCGCCGGCUGGGCAACAUUCCGAGGGGACCGUCCCCUCGGUAAUGGCGAAUGGGACCCA [C18G C24G]
OUTPUT: 0.0504

INPUT: Also check GGCCGGCAUCGUCCCAGCCUCCUCGCUGACGCCGGCUGGGCAACAUUCCGAGGGGACCGUCCCCUCGGUAAUGGCGAAUGGGACCCA [G10C G29A]
OUTPUT: 0.032

INPUT: Also check GGCCGGCAUGGUCCCAACCUCCUCGCUGGCGCCGGCUGGGCAACAUUCCGAGGGGACCGUCCCCUCGGUAAUGGCGAAUGGGACGCA [G17A C85G]
OUTPUT: 0.814
